# TEST: DNDI: Solubility, 24 hour, 50 mM Phosphate - pH 2, 37C
# Type: physicochemical
# PARTICULARS: 50 mM phosphate buffer, read-out: Equilibrium
PARAMETER: solubility thermodynamic at 24 h (µg/mL)
Give bare numbers, in µg/mL.

Problem: Could you tell me which solubility thermodynamic at 24 h is on file for FC(F)(F)c1ccc(N(c2cccnc2)C2CCN(c3ccc(C(F)(F)F)cn3)CC2)cc1 ?
Result: 1430

* * *

# TEST: in vitro
# PARTICULARS: human, microsomes, EH
Decide by hepatic extraction ratio: equal to or exceeding 0.8 means 1 (yes), less means 0 (no).

CCC(C(C)O)N1CCC(N(c2ccc(C(F)(F)F)cc2)c2cccnc2)CC1 (stereo unspecified) :: 0 (no)
CC(O)C(C)N1CCC(N(c2ccc(C(F)(F)F)cc2)c2cccnc2)CC1 (stereo unspecified) :: 0 (no)
CCC(C(C)=O)N1CCC(N(c2ccc(C(F)(F)F)cc2)c2cccnc2)CC1 (stereo unspecified) :: 1 (yes)
FC(F)(F)c1ccc(N(c2cccnc2)C2CCN(C(c3ccccc3)C(F)(F)F)CC2)cc1 (stereo unspecified) :: 0 (no)

Problem: Item CC(C)C(O)CN1CCC(N(c2ccc(C(F)(F)F)cc2)c2cccnc2)CC1 (stereo unspecified) with hepatic extraction ratio of 0.8 or above?
Result: 0 (no)

* * *

Answer each item with its documented hepatic extraction ratio.
# TEST: in vitro
# PARTICULARS: human, microsomes

Worked examples follow.
Cc1noc(C)c1C(=O)N1CCC(N(c2ccc(C(F)(F)F)cc2)c2cccnc2)CC1 :: 0.89
CS(=O)(=O)N1CCC(N(c2ccc(Cl)cc2)c2cccnc2)CC1 :: 0.73

For each of the items listed, what is its hepatic extraction ratio?
1. O=C(c1ccc(F)cc1)N1CCC(N(c2ccc(C(F)(F)F)cc2)c2cccnc2)CC1
2. Cn1nc(C2CC2)cc1N1CCC(N(c2ccc(C(F)(F)F)cc2)c2cccnc2)CC1
3. N#Cc1ccccc1N1CCC(N(c2ccc(C(F)(F)F)cc2)c2cccnc2)CC1

Result:
1: 0.88; 2: 0.87; 3: 0.88

Provide hepatic extraction ratio for all items below, preserving their order.
1. CN(C)S(=O)(=O)c1cccc(N2CCC(N(c3ccc(C#N)cc3)c3cccnc3)CC2)c1
2. Cc1ncsc1C(=O)N1CCC(N(c2ccc(C(F)(F)F)cc2)c2cccnc2)CC1
3. CS(=O)(=O)c1ccc(N2CCC(N(c3ccc(C#N)cc3)c3cccnc3)CC2)cc1
4. N#Cc1ccc(N(c2cccnc2)C2CCN(c3ccc(F)c(F)c3)CC2)cc1

Result:
1. 0.97
2. 0.85
3. 0.47
4. 0.8

Problem: Quick one: hepatic extraction ratio of CS(=O)(=O)c1ccc(N2CCC(N(c3ccc(Cl)cc3)c3cccnc3)CC2)cc1 ?
Result: 0.88

* * *

# TEST: in vitro
# PARTICULARS: human, microsomes
PARAMETER: microsomal CLint (µL/min/mg)
Numbers only, in µL/min/mg.

N#Cc1ccc(N2CCC(N(c3ccc(C(F)(F)F)cc3)c3cccnc3)CC2)cc1 :: 112
CS(=O)(=O)c1ccc(N2CCC(N(c3ccc(C#N)cc3)c3cccnc3)CC2)cc1 :: 15.6
FC(F)(F)c1ccc(N(c2cccnc2)C2CCN(c3ncccn3)CC2)cc1 :: 196

Please report microsomal CLint for every entry that follows.
1. N#Cc1cc(C(F)(F)F)ccc1N1CCC(N(c2ccc(C(F)(F)F)cc2)c2cccnc2)CC1
2. CS(=O)(=O)N1CCC(N(c2ccc(Cl)cc2)c2cccnc2)CC1
3. N#Cc1ccc(N(c2cccnc2)C2CCN(c3ccc(C(F)(F)F)cc3)CC2)cc1
4. O=C(c1ccccc1C(F)(F)F)N1CCC(N(c2ccc(C(F)(F)F)cc2)c2cccnc2)CC1
5. Cc1ncsc1C(=O)N1CCC(N(c2ccc(C(F)(F)F)cc2)c2cccnc2)CC1

Result:
1. 52.9
2. 48.8
3. 39.5
4. 247
5. 105
